# tested target: human CRTH2 receptor (Homo sapiens, UniProt Q9Y5Y4, V204A)
# Sequence (Q9Y5Y4 1-395 V204A): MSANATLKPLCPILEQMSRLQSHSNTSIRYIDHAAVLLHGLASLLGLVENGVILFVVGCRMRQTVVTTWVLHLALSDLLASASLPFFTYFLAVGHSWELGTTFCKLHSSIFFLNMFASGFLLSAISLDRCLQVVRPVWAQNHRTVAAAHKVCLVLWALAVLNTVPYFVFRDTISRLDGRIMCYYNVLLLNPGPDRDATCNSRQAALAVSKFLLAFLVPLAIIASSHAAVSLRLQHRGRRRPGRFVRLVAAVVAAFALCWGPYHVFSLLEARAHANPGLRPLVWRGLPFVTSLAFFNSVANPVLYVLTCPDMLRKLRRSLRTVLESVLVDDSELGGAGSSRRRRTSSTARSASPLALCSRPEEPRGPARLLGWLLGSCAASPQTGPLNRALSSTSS
# procedure details: CRTH2 receptor binding assay ([3H]PGD2 competition on whole transfected cells)
# condition: competition binding with 0.1 nM [3H]PGD2, whole cells expressing CRTH2, 3 h at 4° C.
endpoint: IC50

1) O=C(/C=C/c1ccc(OC(F)(F)F)cc1)Nc1cccc(C(=O)Nc2ccccc2C(=O)O)c1 < 500 nM
2) O=C(COc1ccc(Cl)cc1)Nc1cccc(C(=O)Nc2ccccc2C(=O)O)c1 < 500 nM
3) O=C(Nc1ccccc1C(=O)O)c1cccc(S(=O)(=O)N2CCOCC2)c1 > 5000 nM
4) O=C(Nc1ccc(Br)cc1C(=O)O)c1cccc(S(=O)(=O)Nc2ccc(Cl)nc2)c1 500 to 5000 nM
5) Cc1ccc(S(=O)(=O)N2CCOCC2)cc1C(=O)Nc1ccccc1C(=O)O > 5000 nM
6) O=C(Nc1ccccc1C(=O)O)c1cccc(NC(=O)C(c2ccccc2)c2ccccc2)c1 < 500 nM
7) O=C(Nc1ccc(OC(F)(F)F)cc1)Nc1cccc(C(=O)Nc2ccccc2C(=O)O)c1 500 to 5000 nM
8) COc1cccc(OC)c1C(=O)Nc1cccc(C(=O)Nc2ccccc2C(=O)O)c1 500 to 5000 nM
9) CCN(CC)S(=O)(=O)c1cc(C(=O)Nc2ccccc2C(=O)O)ccc1Br 500 to 5000 nM
10) Cc1ccc(C(=O)Nc2ccccc2C(=O)O)cc1S(=O)(=O)NC1CCCCC1 500 to 5000 nM
11) O=C(Nc1ccc(Br)cc1C(=O)O)c1cccc(S(=O)(=O)Nc2cccc(Oc3ccccc3)c2)c1 < 500 nM
12) CCCOc1ccc(C(=O)Nc2cccc(C(=O)Nc3ccccc3C(=O)O)c2)cc1 < 500 nM
13) O=C(Nc1ccc(Br)cc1C(=O)O)c1ccc(Br)c(S(=O)(=O)Nc2ccc(Br)cc2)c1 < 500 nM
14) CCCOc1cccc(C(=O)Nc2cccc(C(=O)Nc3ccccc3C(=O)O)c2)c1 < 500 nM
15) O=C(Nc1ccc(Br)cc1C(=O)O)c1cccc(S(=O)(=O)Nc2ccc(Br)cc2)c1 < 500 nM
